Reported Drug metabolism values for a set of compounds
test: Prodrug conversion in Sprague-Dawley rat assessed as dexmedetomidine release at 2 times of ED50; assay type: ADME; settings: in vivo
Reply with just the number (in µg/kg).

Example results:
COC(=O)n1cnc([C@@H](C)c2cccc(C)c2C)c1.Cl    25.77
Cc1cccc([C@H](C)c2cn(COC(=O)C3CC3)cn2)c1C.Cl    35.67
Cc1cccc([C@H](C)c2cn(COC(=O)C(C)C)cn2)c1C.Cl    47.44

I would be grateful if you could share the reported Drug metabolism for Cc1cccc([C@H](C)c2cn(COC(=O)C(C)(C)C)cn2)c1C.Cl .
62.94

Given the entry Cc1cccc([C@H](C)c2cn(C(=O)OCC(C)C)cn2)c1C.Cl , report its measured Drug metabolism.
42.7

Requested field: Drug metabolism. Item: COC(=O)OCn1cnc([C@@H](C)c2cccc(C)c2C)c1.Cl
28.68
